Molecular target: OAT1 (Homo sapiens, UniProt Q4U2R8)
Construct: gene SLC22A6; expressed in HEK293 cells
Sequence (Q4U2R8 whole entry): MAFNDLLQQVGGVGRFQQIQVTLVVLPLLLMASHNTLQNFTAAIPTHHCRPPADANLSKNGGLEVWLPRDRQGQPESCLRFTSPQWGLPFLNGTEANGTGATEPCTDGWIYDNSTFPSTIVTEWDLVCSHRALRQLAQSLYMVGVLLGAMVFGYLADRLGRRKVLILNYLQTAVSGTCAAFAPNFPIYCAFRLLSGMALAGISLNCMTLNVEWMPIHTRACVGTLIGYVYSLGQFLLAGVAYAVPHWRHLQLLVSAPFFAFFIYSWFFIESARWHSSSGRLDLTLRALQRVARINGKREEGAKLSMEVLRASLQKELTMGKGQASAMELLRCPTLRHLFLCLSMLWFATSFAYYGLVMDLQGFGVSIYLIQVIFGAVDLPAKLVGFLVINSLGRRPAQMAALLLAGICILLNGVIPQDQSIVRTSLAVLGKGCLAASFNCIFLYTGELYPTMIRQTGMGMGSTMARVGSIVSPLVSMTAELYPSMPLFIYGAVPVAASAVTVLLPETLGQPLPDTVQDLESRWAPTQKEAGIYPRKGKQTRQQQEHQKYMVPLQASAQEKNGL
Test: uptake inhibition in HEK293 cells expressing the transporter
Assay type: cell-based
pIC50: −log10 of the molar value.

itemSmiles	pIC50
COC[C@H]1CN(C(=O)[C@]2(F)CN(C3CCCC3)C[C@H]2c2ccc(OC)cc2)C[C@@H]1c1ccc(C(F)(F)F)cc1N1CCC(C(=O)O)CC1	4.15

====

Target: CYP2D6 (Homo sapiens, UniProt P10635)
Construct: native enzyme in human liver microsomes
Sequence (P10635 whole entry): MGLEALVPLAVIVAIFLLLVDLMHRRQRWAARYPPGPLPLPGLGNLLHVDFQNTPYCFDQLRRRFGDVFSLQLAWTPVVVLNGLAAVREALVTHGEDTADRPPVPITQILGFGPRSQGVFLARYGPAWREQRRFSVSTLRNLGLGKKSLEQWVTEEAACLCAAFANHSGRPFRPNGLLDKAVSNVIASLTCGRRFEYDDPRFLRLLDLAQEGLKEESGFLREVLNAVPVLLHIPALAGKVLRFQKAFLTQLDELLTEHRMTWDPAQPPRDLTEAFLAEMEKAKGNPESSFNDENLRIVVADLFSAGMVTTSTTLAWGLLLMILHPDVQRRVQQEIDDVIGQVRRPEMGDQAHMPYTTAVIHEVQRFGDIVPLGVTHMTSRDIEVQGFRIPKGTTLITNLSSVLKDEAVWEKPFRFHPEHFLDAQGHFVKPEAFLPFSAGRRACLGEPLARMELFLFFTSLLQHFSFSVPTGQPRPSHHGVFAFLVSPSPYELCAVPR
Assay: CYP activity inhibition in human liver microsomes
Format: biochemical
Conditions: read-out: IC50 (μM) / Direct inhibition

compound	testTarget	IC50
COC[C@H]1CN(C(=O)[C@]2(F)CN(C3CCCC3)C[C@H]2c2ccc(OC)cc2)C[C@@H]1c1ccc(C(F)(F)F)cc1N1CCC(C(=O)O)CC1 [dersimelagon]	CYP2D6 (Homo sapiens, UniProt P10635)	> 100 µM

====

Biological target: CYP2C9 (Homo sapiens, UniProt P11712)
Construct: native enzyme in human liver microsomes
Sequence (P11712 whole entry): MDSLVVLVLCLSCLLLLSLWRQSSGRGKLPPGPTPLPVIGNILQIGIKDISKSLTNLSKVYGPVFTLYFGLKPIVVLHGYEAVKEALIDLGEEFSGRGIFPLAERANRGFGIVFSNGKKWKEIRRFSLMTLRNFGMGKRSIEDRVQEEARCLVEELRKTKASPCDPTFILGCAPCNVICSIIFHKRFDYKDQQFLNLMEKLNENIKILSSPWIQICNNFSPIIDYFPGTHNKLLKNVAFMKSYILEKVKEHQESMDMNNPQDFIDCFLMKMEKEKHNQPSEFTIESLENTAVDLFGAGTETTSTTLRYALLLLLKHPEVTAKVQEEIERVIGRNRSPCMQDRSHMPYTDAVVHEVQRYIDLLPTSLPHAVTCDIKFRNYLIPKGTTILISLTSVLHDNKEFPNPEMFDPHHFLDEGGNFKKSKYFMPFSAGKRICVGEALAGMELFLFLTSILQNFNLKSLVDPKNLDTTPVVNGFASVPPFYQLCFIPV
Test: CYP activity inhibition in human liver microsomes
Type: biochemical
Details: read-out: IC50 (μM) / Direct inhibition
quantityMeasured: IC50 (µM)

itemSmiles	value
COC[C@H]1CN(C(=O)[C@]2(F)CN(C3CCCC3)C[C@H]2c2ccc(OC)cc2)C[C@@H]1c1ccc(C(F)(F)F)cc1N1CCC(C(=O)O)CC1	9.16

====

Target: CYP2C9 (Homo sapiens, UniProt P11712)
Construct: native enzyme in human liver microsomes
Assay: CYP activity inhibition in human liver microsomes
Assay type: biochemical
Details: read-out: Parameters / K i

itemSmiles	testTarget	outputUnit	Ki
COC[C@H]1CN(C(=O)[C@]2(F)CN(C3CCCC3)C[C@H]2c2ccc(OC)cc2)C[C@@H]1c1ccc(C(F)(F)F)cc1N1CCC(C(=O)O)CC1	CYP2C9 (Homo sapiens, UniProt P11712)	µM	5.13

====

Target: OATP1B1 (Homo sapiens, UniProt Q9Y6L6)
Sequence (Q9Y6L6 whole entry): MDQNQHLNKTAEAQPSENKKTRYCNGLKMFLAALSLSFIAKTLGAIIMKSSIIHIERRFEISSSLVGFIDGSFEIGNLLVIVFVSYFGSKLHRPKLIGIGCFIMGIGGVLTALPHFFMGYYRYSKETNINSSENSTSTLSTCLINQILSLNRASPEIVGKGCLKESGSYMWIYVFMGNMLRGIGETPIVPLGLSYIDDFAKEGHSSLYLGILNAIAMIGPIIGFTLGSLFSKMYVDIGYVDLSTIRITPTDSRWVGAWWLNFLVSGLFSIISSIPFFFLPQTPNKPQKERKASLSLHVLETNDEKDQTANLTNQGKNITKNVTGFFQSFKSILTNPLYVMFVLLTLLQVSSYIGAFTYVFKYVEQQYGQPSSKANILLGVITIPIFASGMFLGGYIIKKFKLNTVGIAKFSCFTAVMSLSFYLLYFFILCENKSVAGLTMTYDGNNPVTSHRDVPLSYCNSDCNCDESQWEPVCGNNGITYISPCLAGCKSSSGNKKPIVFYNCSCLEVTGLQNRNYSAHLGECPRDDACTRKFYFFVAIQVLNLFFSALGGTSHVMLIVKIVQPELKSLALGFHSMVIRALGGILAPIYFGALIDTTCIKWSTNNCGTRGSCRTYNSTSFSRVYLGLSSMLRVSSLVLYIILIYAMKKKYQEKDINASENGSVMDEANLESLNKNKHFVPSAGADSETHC
Test: uptake inhibition in HEK293 cells expressing the transporter
pIC50: −log10 of the molar value.
quantityMeasured: pIC50

itemSmiles	quantityMeasured	value
COC[C@H]1CN(C(=O)[C@]2(F)CN(C3CCCC3)C[C@H]2c2ccc(OC)cc2)C[C@@H]1c1ccc(C(F)(F)F)cc1N1CCC(C(=O)O)CC1	pIC50	6.80

====

Target: CYP2B6 (Homo sapiens, UniProt P20813)
Construct: native enzyme in human liver microsomes
Sequence (P20813 whole entry): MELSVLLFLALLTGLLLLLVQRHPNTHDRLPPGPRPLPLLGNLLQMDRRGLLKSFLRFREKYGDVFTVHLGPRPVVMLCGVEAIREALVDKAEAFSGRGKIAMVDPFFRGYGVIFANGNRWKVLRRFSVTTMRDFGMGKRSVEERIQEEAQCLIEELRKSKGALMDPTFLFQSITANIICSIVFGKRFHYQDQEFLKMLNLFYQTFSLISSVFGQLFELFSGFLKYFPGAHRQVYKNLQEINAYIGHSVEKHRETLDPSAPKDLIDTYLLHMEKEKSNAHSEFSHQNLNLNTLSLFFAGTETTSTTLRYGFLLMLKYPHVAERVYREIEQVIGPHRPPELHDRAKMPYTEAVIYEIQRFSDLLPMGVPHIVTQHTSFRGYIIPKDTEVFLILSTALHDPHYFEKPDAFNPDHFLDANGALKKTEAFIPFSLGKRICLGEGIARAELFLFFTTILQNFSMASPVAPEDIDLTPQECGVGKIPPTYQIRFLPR
Test: CYP activity inhibition in human liver microsomes
Type: biochemical
Conditions: read-out: IC50 (μM) / Direct inhibition

itemSmiles	IC50 (µM)
COC[C@H]1CN(C(=O)[C@]2(F)CN(C3CCCC3)C[C@H]2c2ccc(OC)cc2)C[C@@H]1c1ccc(C(F)(F)F)cc1N1CCC(C(=O)O)CC1	48.9

====

Biological target: CYP3A4 (Table 1); CYP3A (Homo sapiens)
Construct: native enzyme in human liver microsomes
Sequence (P08684 2-503): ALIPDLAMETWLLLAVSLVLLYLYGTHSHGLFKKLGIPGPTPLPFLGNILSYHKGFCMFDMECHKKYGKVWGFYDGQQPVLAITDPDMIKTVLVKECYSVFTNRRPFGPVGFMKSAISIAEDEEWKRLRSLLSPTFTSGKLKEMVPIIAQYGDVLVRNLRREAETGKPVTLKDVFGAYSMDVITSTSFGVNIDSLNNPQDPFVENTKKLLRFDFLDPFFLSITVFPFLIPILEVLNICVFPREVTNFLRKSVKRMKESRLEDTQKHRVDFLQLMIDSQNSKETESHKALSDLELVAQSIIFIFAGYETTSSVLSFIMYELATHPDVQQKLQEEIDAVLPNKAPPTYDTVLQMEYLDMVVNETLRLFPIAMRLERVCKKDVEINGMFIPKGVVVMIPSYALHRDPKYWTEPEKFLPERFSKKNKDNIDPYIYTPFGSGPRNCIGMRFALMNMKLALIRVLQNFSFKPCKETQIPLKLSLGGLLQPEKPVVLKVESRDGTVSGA
Assay: time-dependent inactivation in human liver microsomes
Type: biochemical
Details: read-out: Parameters / K I
quantityMeasured: KI (inactivation)

itemSmiles	quantityMeasured	value
COC[C@H]1CN(C(=O)[C@]2(F)CN(C3CCCC3)C[C@H]2c2ccc(OC)cc2)C[C@@H]1c1ccc(C(F)(F)F)cc1N1CCC(C(=O)O)CC1	KI (inactivation)	64.1 µM

====

Molecular target: CYP2C19 (Homo sapiens, UniProt P33261)
Construct: native enzyme in human liver microsomes
Sequence (P33261 whole entry): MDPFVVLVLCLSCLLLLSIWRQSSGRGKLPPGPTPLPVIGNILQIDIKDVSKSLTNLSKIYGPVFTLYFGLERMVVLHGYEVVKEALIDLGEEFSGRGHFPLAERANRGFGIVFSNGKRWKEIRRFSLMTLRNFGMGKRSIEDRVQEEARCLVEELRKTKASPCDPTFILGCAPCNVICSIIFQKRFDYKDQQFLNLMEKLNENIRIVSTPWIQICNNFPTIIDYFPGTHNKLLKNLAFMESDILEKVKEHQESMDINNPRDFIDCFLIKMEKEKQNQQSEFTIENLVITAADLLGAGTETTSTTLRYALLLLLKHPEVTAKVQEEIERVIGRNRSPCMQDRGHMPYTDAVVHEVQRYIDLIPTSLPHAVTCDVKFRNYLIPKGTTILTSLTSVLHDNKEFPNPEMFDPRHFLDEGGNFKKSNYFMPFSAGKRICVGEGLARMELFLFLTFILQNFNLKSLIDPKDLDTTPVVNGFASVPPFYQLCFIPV
Assay: CYP activity inhibition in human liver microsomes
Assay type: biochemical
Conditions: read-out: IC50 (μM) / Direct inhibition
quantityMeasured: IC50

itemSmiles	testTarget	value
COC[C@H]1CN(C(=O)[C@]2(F)CN(C3CCCC3)C[C@H]2c2ccc(OC)cc2)C[C@@H]1c1ccc(C(F)(F)F)cc1N1CCC(C(=O)O)CC1	CYP2C19 (Homo sapiens, UniProt P33261)	23.4 µM
